# System: SF-539 CNS
# protocol: NCI-60 one-dose screen, 48 h
# assay_setup: 10 µM
Compounds without any hit were thinned out: in the full panel of roughly 83,000, 20% have a hit. Active and inactive are the calls of the source. The calls were made as follows: active = growth percent below 10; inactive = the rest.
Select the matching outcome among True for active, False for inactive

compound: Oc1[nH]c2ccccc2c1/C=c1/cc2c(c(-c3ccc(C(F)(F)F)cc3)n1)=Nc1ccccc1-2
class_label: False

Hey, what did the test say about "CNC(=O)c1cc(Oc2ccc(NC(=O)Nc3ccc(Cl)c(OC4CCCCC4)c3)c(F)c2)ccn1" ?
False

Input "COc1ccc(CCc2nc3cc(-c4c(C)noc4C)ccc3n2CCN2CCOCC2)cc1"
False

Thanks! And "Clc1cc(Cl)c(Cl)c(-c2nc(-c3cccnc3)cs2)c1" ?
False

Thanks! And "COc1cc(CSc2nc3ccc(C)cc3c(=O)n2-c2ccccc2)cc(OC)c1OC" ?
True

Try this compound next: "COc1cc(OC)cc(N2CCN(C(=O)Nc3nc4cc(F)ccc4nc3OC)CC2)c1"
True

Check "Brc1ccc(-c2cn3ccnc3c(-c3ccc(Br)cc3)n2)cc1" too.
False

Another compound to look at: "CC1(C)CC(OCCCC[P+](c2ccccc2)(c2ccccc2)c2ccccc2)CC(C)(C)N1O"
False

Input "Nc1c(CNCc2nnn(Cc3ccccc3)c2N)nnn1Cc1ccccc1"
False

What do you get for CCCOCC(O)CNCCN (configuration not stated) ?
False

Next record, please: "CCOCC[P+](c1ccccc1)(c1ccccc1)c1ccccc1"
False

Then what about the compound "C[N+]1=C(/C=C/c2ccc(I)cc2)C(C)(C)c2ccccc21" ?
False

====

# Tested on: M14 melanoma
# protocol: NCI-60 one-dose screen, 48 h (100 = growth as untreated, 0 = no growth, -100 = all killed)
# assay_setup: 10 µM
# Description: Growth inhibition of the M14 human tumor cell line is measured as a screen for anti-cancer activity. Cells are grown in 96 well plates and exposed to the test compound for 48 hours. Compounds are tested at a single concentration, which is 10^-5 M for most compounds. The reported endpoint is percent growth (GI% or GIPRCNT), where numbers from 0 - 100% represent growth inhibition, and numbers from -100% - 0 represent cell death. For example, a value of 40 represents 60% growth inhibition. […]
The panel holds about 83,000 compounds, 20% with a hit somewhere; the sample as a whole holds those more often.
measured_attribute: growth (%)
// return numeric value only (unit: %, not printed)

Previously resolved entries follow.
input_smiles: O=[N+]([O-])c1ccc2c(c1)Cc1cc(I)ccc1-2
unit_tag: %
measured: 101
//
input_smiles: CCN(CC)CCOC(=O)c1ccc(N=Nc2ccc(O)c(OC)c2)cc1
unit_tag: %
measured: 103
//
input_smiles: Cc1nc(Nc2nc3ccccc3o2)nc(-c2cccc([N+](=O)[O-])c2)c1C(=O)Nc1ccc(F)c(Cl)c1
unit_tag: %
measured: 15.6
//
input_smiles: COc1ccccc1Cn1cc2c(c1-c1ccccc1)CCc1cnoc1-2
unit_tag: %
measured: 34.5

Now consider the entry below.
Dear colleague, I am looking for the recorded growth of the following molecule: "C/C(=N\NC(=O)c1sc(=S)n(C)c1N)c1cc2ccccc2o1"
40.8

====

# Test system: ACHN renal
# protocol: NCI-60 one-dose screen, 48 h (100 = growth as untreated, 0 = no growth, -100 = all killed)
# assay_setup: 10 µM
About 83,000 compounds went through this panel and 20% of them were active in at least one assay; those are over-represented in the sample as a whole. Calls of active or inactive are those of the source. How the source made its calls: active means growth percent below 10; inactive means the rest.
Reported growth values for a set of compounds

compound: O=C(Nc1ccc(Oc2ccc(Nc3nc4ccccc4s3)cc2)cc1)Nc1ccc(Cl)c(Cl)c1
growth: 20.3% (inactive)
--
compound: CCC(O)c1ccc(Br)cc1NC(=O)c1cccc(Cl)c1 (stereo not given)
growth: 15.6% (inactive)
--
compound: COc1ccc(-c2nnc(SC/C(=N\O)c3ccccc3)o2)cc1
growth: 101% (inactive)
--
compound: COc1cccc(C(=O)NNc2nc(N3CCN(C4CCCCC4)CC3)nc(N3CCN(C(c4ccccc4)c4ccccc4)CC3)n2)c1
growth: 70.2% (inactive)
--
compound: Cc1ccc(C2C=C(c3ccc(Cl)cc3)N=C3SC=CN32)c(Br)c1 (stereo not given)
growth: 91.8% (inactive)

Fill blank: measured growth of the compound "CNC(=O)c1cc(Oc2ccc(NC(=O)Nc3ccc(Cl)c(OC(C)C)c3)c(F)c2)ccn1" is ____.
41.9% (inactive)

How about this compound: "COc1cc(-c2nc3ccccc3[nH]2)ccc1OCc1nnc(-c2ccc(Br)cc2)o1"
98.6% (inactive)

Now consider "Cc1ccc2c3c(cccc13)-c1ccccc1C2=O" and answer again.
96.8% (inactive)

Try this compound next: "CCN(CC)CCOC(=O)c1ccc(NC(=O)Nc2cccc(Cl)c2)cc1"
108% (inactive)

Also "C[C@@H]1N=C(c2ccc(Br)cc2)Nc2nc3ccccn3c2C1=O" ?
69.2% (inactive)

Likewise for "COc1cccc2c1O/C(=C\c1ccc([N+](=O)[O-])s1)C2=O" ?
67.5% (inactive)

Cool, now "CC(=O)c1ccc(NCn2nc(-c3ccc(Cl)cc3)oc2=S)cc1"
96.1% (inactive)

Next compound: "COc1cc(CSc2nc3ccc(C)cc3c(=O)n2-c2ccccc2)cc(OC)c1OC"
44.7% (inactive)

Please do the same for "C=CCNCCCN1C(=O)c2ccc3c4c(ccc(c24)C1=O)C(=O)N(CCCNCC=C)C3=O" as well.
-9.77% (active)

// same read-out, input: "COc1ccc(-c2n/c(=C\c3c(O)[nH]c4ccccc34)cc3c2=Nc2ccccc2-3)cc1"
98.7% (inactive)
